Target: Ephrin type-B receptor 2 (Homo sapiens)
Sequence (P29323 whole entry): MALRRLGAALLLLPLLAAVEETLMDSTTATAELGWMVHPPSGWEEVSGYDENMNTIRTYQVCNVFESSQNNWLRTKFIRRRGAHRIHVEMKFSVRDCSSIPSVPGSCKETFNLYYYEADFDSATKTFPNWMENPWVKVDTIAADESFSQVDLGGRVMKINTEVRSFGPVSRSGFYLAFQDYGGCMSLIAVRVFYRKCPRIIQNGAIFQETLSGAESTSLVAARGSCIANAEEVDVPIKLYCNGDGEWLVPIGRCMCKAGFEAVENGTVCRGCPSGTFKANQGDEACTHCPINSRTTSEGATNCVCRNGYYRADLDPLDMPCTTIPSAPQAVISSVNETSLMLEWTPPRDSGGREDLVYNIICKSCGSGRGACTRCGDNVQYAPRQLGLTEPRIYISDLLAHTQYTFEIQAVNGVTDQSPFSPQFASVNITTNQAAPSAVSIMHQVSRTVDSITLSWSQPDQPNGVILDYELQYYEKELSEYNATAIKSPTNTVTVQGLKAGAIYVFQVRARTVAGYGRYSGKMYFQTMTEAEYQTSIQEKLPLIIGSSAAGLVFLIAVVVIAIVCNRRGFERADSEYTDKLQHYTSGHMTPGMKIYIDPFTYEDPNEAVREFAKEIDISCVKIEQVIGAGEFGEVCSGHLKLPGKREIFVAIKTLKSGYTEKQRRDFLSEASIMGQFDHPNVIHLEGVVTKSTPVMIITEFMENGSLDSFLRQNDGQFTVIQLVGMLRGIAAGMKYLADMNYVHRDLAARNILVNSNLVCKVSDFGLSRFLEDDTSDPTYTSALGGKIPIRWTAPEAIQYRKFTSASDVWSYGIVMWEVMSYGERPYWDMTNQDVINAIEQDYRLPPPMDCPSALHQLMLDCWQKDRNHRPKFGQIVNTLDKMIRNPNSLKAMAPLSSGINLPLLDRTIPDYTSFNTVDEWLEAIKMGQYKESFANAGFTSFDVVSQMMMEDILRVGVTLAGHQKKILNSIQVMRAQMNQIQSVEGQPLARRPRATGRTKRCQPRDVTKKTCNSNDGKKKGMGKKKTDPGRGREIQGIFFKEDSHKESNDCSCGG
Test: Inhibition of recombinant EphB2 (unknown origin) by cell-free assay
readout_name: IC50 (µM)
Please respond with the number in µM and leave the unit unwritten.

[2H]C([2H])([2H])Oc1cc2nccc(Oc3ccc(NC(=O)Nc4cc(C)on4)c(Cl)c3)c2cc1OC([2H])([2H])[2H]; 0.0268

Continue with the next molecule.
# input molecule: `COc1cc2nccc(Oc3ccc(NC(=O)Nc4cc(C)on4)c(Cl)c3)c2cc1OC` ; wanted: its IC50
0.0175

* * *

Experiment: Mean residence time in Sprague-Dawley rat at 2.5 mg/kg, po
Assay type: ADME, organism-based
Set-up: dose 2.5 mg/kg, route oral
Details: in vivo
Catalogue of MRT values
Write the numeric value and follow it with the unit.

[2H]C([2H])([2H])Oc1cc2nccc(Oc3ccc(NC(=O)Nc4cc(C)on4)c(Cl)c3)c2cc1OC([2H])([2H])[2H]; 15.8 h

Continue with the next molecule.
# input molecule: `COc1cc2nccc(Oc3ccc(NC(=O)Nc4cc(C)on4)c(Cl)c3)c2cc1OC` ; wanted: its MRT
13.4 h

* * *

Assay: Half life in Sprague-Dawley rat at 2.5 mg/kg, po
Format: ADME, organism-based
Parameters: dose 2.5 mg/kg, route oral
Conditions: in vivo
Catalogue of half-life values
Please respond with the number in h and leave the unit unwritten.

[2H]C([2H])([2H])Oc1cc2nccc(Oc3ccc(NC(=O)Nc4cc(C)on4)c(Cl)c3)c2cc1OC([2H])([2H])[2H]; 11.1

Continue with the next compound.
# input compound: `COc1cc2nccc(Oc3ccc(NC(=O)Nc4cc(C)on4)c(Cl)c3)c2cc1OC` ; wanted: its half-life
9.35

* * *

Catalogue of AUC(0-inf) values
Assay: AUC (0 to infinity) in Sprague-Dawley rat at 2.5 mg/kg, po
Format: ADME, organism-based
Design: time infinity, dose 2.5 mg/kg, route oral
Conditions: plasma
Write the numeric value and follow it with the unit.

[2H]C([2H])([2H])Oc1cc2nccc(Oc3ccc(NC(=O)Nc4cc(C)on4)c(Cl)c3)c2cc1OC([2H])([2H])[2H]; 73900 ng·h/mL

# input compound: COc1cc2nccc(Oc3ccc(NC(=O)Nc4cc(C)on4)c(Cl)c3)c2cc1OC [TIVOZANIB] ; wanted: its AUC(0-inf)
49100 ng·h/mL

Data provenance: ChEMBL document CHEMBL3425418
